# MEASUREMENT_NOTES: cross-inhibition, in situ perfusion: [^3H]-arginine with 0.5–500 μM unlabelled ADMA
# Assay type: in vivo, mouse
# APPLIED_CONDITIONS: male, Balb/c, mouse, hypothalamus, other: in situ brain perfusion, with unlabelled ADMA 100 µM, Arginine / Sucrose uptake, hypothalamus, mean, [3H] Arginine + [14C] Sucrose + 100µM un-labelled ADMA, 10 mins, Balb/c ♂, 5ml/min; mean
TEST_READOUT: Kp at 10 min

Qu. Kp at 10 min for OC[C@H]1O[C@@](CO)(O[C@H]2O[C@H](CO)[C@@H](O)[C@H](O)[C@H]2O)[C@@H](O)[C@@H]1O [[^14C]-sucrose, reference compound] ?
Ans. 0.0349

Entry source: paper PMC11501026
